molecules and their reported AUC(0-t) at 24 h
# run description: AUC last in BALB/c mouse at 20 mg/kg, po measured upto 24 hrs by LC-MS/MS analysis
# Format: ADME, organism-based
# measurement setup: in vivo
attribute measured: AUC(0-t) at 24 h (ng·h/mL)

| molecule | attribute measured | value |
| --- | --- | --- |
| Nc1nc(N)c(C(C[N+](=O)[O-])c2ccc(OCc3ccc(Cl)c(Cl)c3)cc2)c(N)n1 (stereo unspecified) | AUC(0-t) at 24 h | 435 |
| Nc1nc(N)c(C(C[N+](=O)[O-])c2ccc3c(c2)OCCO3)c(N)n1 (stereo unspecified) | AUC(0-t) at 24 h | 107 |
| Nc1nc(N)c(C(C[N+](=O)[O-])c2ccccc2OCc2cccc(Cl)c2)c(N)n1 (stereo unspecified) | AUC(0-t) at 24 h | 1820 |
| Nc1nc(N)c(C(C[N+](=O)[O-])c2ccccc2OCc2ccc(Cl)c(Cl)c2)c(N)n1 (stereo unspecified) | AUC(0-t) at 24 h | 1180 |
| Nc1nc(N)c(C(C[N+](=O)[O-])c2cccc3c2OCO3)c(N)n1 (stereo unspecified) | AUC(0-t) at 24 h | 2700 |
| Nc1nc(N)c(C(C[N+](=O)[O-])c2csc3ccccc23)c(N)n1 (stereo unspecified) | AUC(0-t) at 24 h | 5290 |

---

compounds and their reported selectivity ratio
# run description: Selectivity index, ratio of GI50 for human A549 cells to EC50 for blood stream form Trypanosoma brucei
# Format: toxicity
# measurement setup: read-out: Ratio GI50/EC50

| compound | selectivity ratio |
| --- | --- |
| Nc1nc(N)c(C(C[N+](=O)[O-])c2ccccc2OCc2ccc(Cl)c(Cl)c2)c(N)n1 (configuration not stated) | 33 |
| Nc1nc(N)c(C(C[N+](=O)[O-])c2csc3ccccc23)c(N)n1 (configuration not stated) | 117 |

---

# experimental target: Voltage-gated inwardly rectifying potassium channel KCNH2 (Homo sapiens)
# Sequence (Q12809 whole entry): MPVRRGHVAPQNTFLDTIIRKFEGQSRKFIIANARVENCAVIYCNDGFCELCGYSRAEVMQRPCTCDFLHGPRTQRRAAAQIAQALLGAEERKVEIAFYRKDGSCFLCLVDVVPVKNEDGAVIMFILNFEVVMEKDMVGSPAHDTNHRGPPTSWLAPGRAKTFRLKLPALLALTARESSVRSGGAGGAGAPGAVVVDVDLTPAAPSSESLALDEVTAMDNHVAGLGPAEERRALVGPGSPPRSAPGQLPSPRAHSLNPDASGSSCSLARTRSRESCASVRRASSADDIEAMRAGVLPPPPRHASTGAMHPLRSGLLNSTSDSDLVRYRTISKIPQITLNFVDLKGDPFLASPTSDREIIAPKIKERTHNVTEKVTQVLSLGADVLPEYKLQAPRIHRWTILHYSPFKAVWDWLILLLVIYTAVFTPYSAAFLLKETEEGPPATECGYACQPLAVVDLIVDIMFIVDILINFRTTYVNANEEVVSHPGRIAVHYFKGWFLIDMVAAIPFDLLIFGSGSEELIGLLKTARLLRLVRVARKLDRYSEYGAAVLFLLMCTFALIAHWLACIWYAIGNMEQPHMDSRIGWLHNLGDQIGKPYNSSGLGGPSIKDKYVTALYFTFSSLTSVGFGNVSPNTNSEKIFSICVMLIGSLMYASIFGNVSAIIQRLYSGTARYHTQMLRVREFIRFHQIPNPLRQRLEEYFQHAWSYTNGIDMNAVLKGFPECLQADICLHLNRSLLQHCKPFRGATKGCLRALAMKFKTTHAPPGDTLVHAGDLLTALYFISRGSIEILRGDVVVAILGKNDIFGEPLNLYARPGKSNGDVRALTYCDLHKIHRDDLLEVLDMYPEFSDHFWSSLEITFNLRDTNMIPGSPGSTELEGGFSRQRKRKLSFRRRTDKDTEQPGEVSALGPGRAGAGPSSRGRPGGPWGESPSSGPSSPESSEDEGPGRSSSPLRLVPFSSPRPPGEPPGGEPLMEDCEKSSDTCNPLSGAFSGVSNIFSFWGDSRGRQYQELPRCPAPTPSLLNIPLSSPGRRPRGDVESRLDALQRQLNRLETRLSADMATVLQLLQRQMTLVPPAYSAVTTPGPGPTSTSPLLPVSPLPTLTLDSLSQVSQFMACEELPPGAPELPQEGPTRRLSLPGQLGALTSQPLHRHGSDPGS
molecules and their reported IC50
attribute measured: IC50 (µM)

| molecule | attribute measured | comparison operator | value |
| --- | --- | --- | --- |
| Nc1nc(N)c(C(C[N+](=O)[O-])c2csc3ccccc23)c(N)n1 (configuration not stated) | IC50 | = | 16 |
| Nc1nc(N)c(C(C[N+](=O)[O-])c2ccccc2OCc2ccc(Cl)c(Cl)c2)c(N)n1 (configuration not stated) | IC50 | > | 100 |

---

# Test system: Trypanosoma brucei
# run description: Antiparasitic activity against blood stream form Trypanosoma brucei assessed as parasitic growth inhibition incubated for 72 hrs by resazurin dye based fluorescence analysis
# Type: functional, organism-based
pEC50: −log10 of the molar value.
Threshold rule: pEC50 greater than or equal to 6 is Criterion met; below that, Criterion not met.

| compound | classification |
| --- | --- |
| Nc1nc(N)c(C(C[N+](=O)[O-])c2ccc(OCc3ccc(Cl)c(Cl)c3)cc2)c(N)n1 (stereo not given) | Criterion met |
| COc1cccc(OC)c1C(C[N+](=O)[O-])c1c(N)nc(N)nc1N (stereo not given) | Criterion not met |
| Nc1nc(N)c(C(C[N+](=O)[O-])c2ccccc2OCc2cccc(Cl)c2)c(N)n1 (stereo not given) | Criterion met |
| Nc1nc(N)c(C(C[N+](=O)[O-])c2ccco2)c(N)n1 (stereo not given) | Criterion not met |

---

# experimental target: Cytochrome P450 2C19 (Homo sapiens, UniProt P33261)
# Sequence (P33261 whole entry): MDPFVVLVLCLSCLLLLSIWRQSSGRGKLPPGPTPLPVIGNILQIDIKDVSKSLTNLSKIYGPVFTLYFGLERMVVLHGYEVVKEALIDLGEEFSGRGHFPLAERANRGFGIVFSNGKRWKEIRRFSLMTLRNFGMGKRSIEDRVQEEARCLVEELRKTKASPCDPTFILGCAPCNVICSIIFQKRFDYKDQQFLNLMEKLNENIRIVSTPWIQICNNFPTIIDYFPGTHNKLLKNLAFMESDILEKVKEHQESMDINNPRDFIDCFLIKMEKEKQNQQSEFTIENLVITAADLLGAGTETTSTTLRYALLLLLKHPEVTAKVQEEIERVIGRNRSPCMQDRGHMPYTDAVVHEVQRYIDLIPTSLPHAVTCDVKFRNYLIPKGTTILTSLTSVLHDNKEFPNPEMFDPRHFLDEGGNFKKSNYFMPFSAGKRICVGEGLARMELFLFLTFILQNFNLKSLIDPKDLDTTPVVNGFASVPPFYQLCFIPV
# run description: Inhibition of CYP2C19 (unknown origin) expressed in baculovirus infected insect cells using luciferin as substrate preincubated for 30 mins followed by NADPH addition and measured after 30 mins by luminescence based analysis
pIC50: −log10 of the molar value.
attribute measured: pIC50

| compound | experimental target | value |
| --- | --- | --- |
| Nc1nc(N)c(C(C[N+](=O)[O-])c2ccccc2OCc2ccc(Cl)c(Cl)c2)c(N)n1 (configuration not stated) | Cytochrome P450 2C19 (Homo sapiens, UniProt P33261) | 5.10 |
| Nc1nc(N)c(C(C[N+](=O)[O-])c2csc3ccccc23)c(N)n1 (configuration not stated) | Cytochrome P450 2C19 (Homo sapiens, UniProt P33261) | 4.82 |

---

# System: hERG
# run description: Selectivity index, ratio of IC50 for human ERG to EC50 for blood stream form Trypanosoma brucei
# Assay type: toxicity
# measurement setup: read-out: Ratio IC50/EC50
compounds and their reported selectivity ratio

| compound | comparison operator | selectivity ratio |
| --- | --- | --- |
| Nc1nc(N)c(C(C[N+](=O)[O-])c2csc3ccccc23)c(N)n1 (configuration not stated) | = | 178 |
| Nc1nc(N)c(C(C[N+](=O)[O-])c2ccccc2OCc2ccc(Cl)c(Cl)c2)c(N)n1 (configuration not stated) | > | 300 |

---

# run description: Cmax in BALB/c mouse at 20 mg/kg, po measured upto 24 hrs by LC-MS/MS analysis
# Type: ADME, organism-based
# measurement setup: in vivo
molecules and their reported Cmax
attribute measured: Cmax (ng/mL)

| molecule | attribute measured | units text | value |
| --- | --- | --- | --- |
| Nc1nc(N)c(C(C[N+](=O)[O-])c2ccc3c(c2)OCCO3)c(N)n1 (stereo unspecified) | Cmax | ng/mL | 25 |
| Nc1nc(N)c(C(C[N+](=O)[O-])c2ccccc2OCc2cccc(Cl)c2)c(N)n1 (stereo unspecified) | Cmax | ng/mL | 446 |
| Nc1nc(N)c(C(C[N+](=O)[O-])c2cccc3c2OCO3)c(N)n1 (stereo unspecified) | Cmax | ng/mL | 399 |
| Nc1nc(N)c(C(C[N+](=O)[O-])c2ccc(OCc3ccc(Cl)c(Cl)c3)cc2)c(N)n1 (stereo unspecified) | Cmax | ng/mL | 63 |
| Nc1nc(N)c(C(C[N+](=O)[O-])c2csc3ccccc23)c(N)n1 (stereo unspecified) | Cmax | ng/mL | 828 |
| Nc1nc(N)c(C(C[N+](=O)[O-])c2ccccc2OCc2ccc(Cl)c(Cl)c2)c(N)n1 (stereo unspecified) | Cmax | ng/mL | 373 |

---

# System: CYP1A2
# run description: Selectivity index, ratio of IC50 for CYP1A2 (unknown origin) to EC50 for blood stream form Trypanosoma brucei
# Assay type: toxicity
# measurement setup: read-out: Ratio IC50/EC50
molecules and their reported selectivity ratio

| molecule | selectivity ratio |
| --- | --- |
| Nc1nc(N)c(C(C[N+](=O)[O-])c2ccccc2OCc2ccc(Cl)c(Cl)c2)c(N)n1 (configuration not stated) | 4 |
| Nc1nc(N)c(C(C[N+](=O)[O-])c2csc3ccccc23)c(N)n1 (configuration not stated) | 33 |

---

# System: CYP2D6
# run description: Selectivity index, ratio of IC50 for CYP2D6 (unknown origin) to EC50 for blood stream form Trypanosoma brucei
# Format: toxicity
# measurement setup: read-out: Ratio IC50/EC50

| molecule | selectivity ratio |
| --- | --- |
| Nc1nc(N)c(C(C[N+](=O)[O-])c2csc3ccccc23)c(N)n1 (configuration not stated) | 113 |
| Nc1nc(N)c(C(C[N+](=O)[O-])c2ccccc2OCc2ccc(Cl)c(Cl)c2)c(N)n1 (configuration not stated) | 20 |

---

# experimental target: Pteridine reductase 1 (Leishmania major, UniProt Q01782)
# Sequence (Q01782 whole entry): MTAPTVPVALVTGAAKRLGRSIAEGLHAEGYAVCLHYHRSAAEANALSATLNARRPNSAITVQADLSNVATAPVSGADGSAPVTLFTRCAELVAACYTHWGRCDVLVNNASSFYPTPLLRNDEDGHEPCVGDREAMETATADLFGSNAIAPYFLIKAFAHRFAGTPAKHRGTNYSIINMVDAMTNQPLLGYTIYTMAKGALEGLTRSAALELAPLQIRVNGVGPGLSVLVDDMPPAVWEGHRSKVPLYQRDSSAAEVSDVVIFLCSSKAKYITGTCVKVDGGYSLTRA
# run description: Inhibition of N-terminal his 6 tagged recombinant Leishmania major PTR1 expressed in Escherichia coli BL21 (DE3) cells preincubated for 10 mins followed by NADPH addition and measured after 10 to 50 mins by multilabel plate reader method
pIC50: −log10 of the molar value.
compounds and their reported pIC50

| compound | pIC50 |
| --- | --- |
| Nc1nc(N)c(C(C[N+](=O)[O-])c2ccc(Br)cc2)c(N)n1 (stereo unspecified) | 4.19 |
| N=C(N)c1ccc(OCCCCCOc2ccc(C(=N)N)cc2)cc1 | 4.06 |
| Nc1nc(N)c(C(C[N+](=O)[O-])c2ccccc2OCc2ccccc2[N+](=O)[O-])c(N)n1 (stereo unspecified) | 4.34 |
| Nc1cc(N)nc(N)n1 | 5.40 |
| Nc1nc(N)c(C(C[N+](=O)[O-])c2cccc(Br)c2)c(N)n1 (stereo unspecified) | 4.24 |
| Nc1nc(N)c(C(C[N+](=O)[O-])c2cccs2)c(N)n1 (stereo unspecified) | 5.31 |

---

# Tested on: Trypanosoma brucei
# run description: Antiparasitic activity against blood stream form Trypanosoma brucei assessed as parasitic growth inhibition incubated for 72 hrs by resazurin dye based fluorescence analysis
# Format: functional, organism-based
pEC50: −log10 of the molar value.
attribute measured: pEC50

| compound | experimental target | value |
| --- | --- | --- |
| Nc1nc(N)c(C(C[N+](=O)[O-])c2ccc(Cl)c(Cl)c2)c(N)n1 (stereo not drawn) | Trypanosoma brucei | 6.09 |
| Nc1nc(N)c(C(C[N+](=O)[O-])c2cccc([N+](=O)[O-])c2)c(N)n1 (stereo not drawn) | Trypanosoma brucei | 5.92 |
| Nc1nc(N)c(C(C[N+](=O)[O-])c2ccc(Cl)cc2)c(N)n1 (stereo not drawn) | Trypanosoma brucei | 5.89 |
